- System: LS-180 (Colorectal Carcinoma)
- PROTOCOL: combination Emax (second highest fraction inhibited in the dose matrix, 72 h); higher = more inhibition; extreme values may be limits of the assay
Provide the reported combination Emax of each item.
Numbers only.

Some solved entries appear below for comparison.
• CC(=O)c1c(C)c2cnc(Nc3ccc(N4CCNCC4)cn3)nc2n(C2CCCC2)c1=O [Palbociclib] + CC1(C)CCC(CN2CCN(c3ccc(C(=O)NS(=O)(=O)c4ccc(NCC5CCOCC5)c([N+](=O)[O-])c4)c(Oc4cnc5[nH]ccc5c4)c3)CC2)=C(c2ccc(Cl)cc2)C1 [Venetoclax] (first compound max 10 µM, 7x7, partner max 1 µM) = 0.61
• COc1nnc2ccc(N3CCC(c4ccc(OCCN5CCN(C)C(=O)[C@H]5C)cc4)CC3)nn12 [AZD5153] + Cc1c2c(nn1C)CSCc1cc(n(C)n1)CSc1cc(c3ccccc3c1)OCCCc1c(C(=O)O)n(C)c3c-2c(Cl)ccc13 [AZD5991] (first compound max 1 µM, 7x7, partner max 1 µM) = 0.585
• Cc1c2c(nn1C)CSCc1cc(n(C)n1)CSc1cc(c3ccccc3c1)OCCCc1c(C(=O)O)n(C)c3c-2c(Cl)ccc13 [AZD5991] + CC(=O)O[C@H]1C(=O)[C@@]2(C)[C@H]([C@H](OC(=O)c3ccccc3)[C@]3(O)C[C@H](OC(=O)[C@H](O)[C@@H](NC(=O)c4ccccc4)c4ccccc4)C(C)=C1C3(C)C)[C@]1(OC(C)=O)CO[C@@H]1C[C@@H]2O [Paclitaxel] (first compound max 1 µM, 7x7, partner max 3 µM) = 0.822

Please state, for each entry, its recorded combination Emax.
1. CS(=O)(=O)CCNCc1ccc(-c2ccc3ncnc(Nc4ccc(OCc5cccc(F)c5)c(Cl)c4)c3c2)o1 [Lapatinib] + Cn1cnc2c(F)c(Nc3ccc(Br)cc3Cl)c(C(=O)NOCCO)cc21 [Selumetinib] (first compound max 10 µM, 7x7, partner max 10 µM)
2. CN(C)CCCOc1ccc(-c2ccc3ncc4c(c3c2)n(C2CCOCC2)c(=O)n4C)cn1 [AZD0156] + C[C@@H]1COCCN1C2=NC(=NC(=C2)C3(CC3)[S@](=N)(=O)C)C4=C5C=CNC5=NC=C4 [AZD6738] (first compound max 1 µM, 7x7, partner max 10 µM)
3. CC(=O)c1c(C)c2cnc(Nc3ccc(N4CCNCC4)cn3)nc2n(C2CCCC2)c1=O [Palbociclib] + Cn1cnc2c(F)c(Nc3ccc(Br)cc3Cl)c(C(=O)NOCCO)cc21 [Selumetinib] (first compound max 10 µM, 7x7, partner max 10 µM)

Result string:
1: 0.758; 2: 0.694; 3: 0.759
